Kindly state Biodistribution, Heart for each of the entries shown.
- Test system: SCID mice bearing twin HEK293-CCK2i4svR and wtHEK293 tumors
- PROTOCOL: Biodistribution in SCID mice bearing twin HEK293-CCK2i4svR and wtHEK293 xenografts
- Type: in vivo
- SETTINGS: 4 h pi
Field: numeric (%IA/g). Do not append units.

Entry CC(C)(C)C(=O)CN1C(=O)[C@H](NC(=O)Nc2cccc(C(=O)NCCOCCOCCOCCNC(=O)[C@@H](CCC(=O)O)NC(=O)CCC(C(=O)[O-])N3CCN(CC(=O)[O-])CCN(CC(=O)[O-])CC3)c2)CN(C2CCCCC2)c2ccccc21.[111In+3] (stereo partly shown) [[^111In]In-GAS2] , SCID mice bearing twin HEK293-CCK2i4svR and wtHEK293 tumors data, Biodistribution, Heart value: 1.61

Entry CC(C)(C)C(=O)CN1C(=O)[C@H](NC(=O)Nc2cccc(C(=O)NCCOCCOCCOCCNC(=O)[C@H](CCC(=O)O)NC(=O)CN3CCN(CC(=O)[O-])CCN(CC(=O)[O-])CCN(CC(=O)[O-])CC3)c2)CN(C2CCCCC2)c2ccccc21.[67Ga+3] (stereo in doubt) [[^67Ga]Ga-GAS1] , SCID mice bearing twin HEK293-CCK2i4svR and wtHEK293 tumors data, Biodistribution, Heart value: 0.47

Entry CC(C)(C)C(=O)CN1C(=O)[C@H](NC(=O)Nc2cccc(C(=O)NCCOCCOCCOCCNC(=O)[C@H](CCC(=O)O)NC(=O)CN3CCN(CC(=O)[O-])CCN(CC(=O)[O-])CCN(CC(=O)[O-])CC3)c2)CN(C2CCCCC2)c2ccccc21.[111In+3] (stereo in doubt) [[^111In]In-GAS1] , SCID mice bearing twin HEK293-CCK2i4svR and wtHEK293 tumors data, Biodistribution, Heart value: 1.10

Entry CC(C)(C)C(=O)CN1C(=O)[C@H](NC(=O)Nc2cccc(C(=O)NCCOCCOCCOCCNC(=O)[C@H](CCC(=O)O)NC(=O)CCC(C(=O)O)N3CCN(CC(=O)[O-])CCN(CC(=O)[O-])CCN(CC(=O)[O-])CC3)c2)CN(C2CCCCC2)c2ccccc21.[177Lu+3] (stereo in doubt) [[^177Lu]Lu-GAS3] , SCID mice bearing twin HEK293-CCK2i4svR and wtHEK293 tumors data, Biodistribution, Heart value: 0.94
